Assay: NCI Yeast Anticancer Drug Screen. Data for the rad50 strain (AID 155)
Conditions: S. cerevisiae rad50 strain growth inhibition; at 50.0 µM
Compounds without any hit were thinned out: in the full panel of roughly 79,000, 15% have a hit. Activity calls are given as the source filed them. No stated cut-off is given here; in the data, active means growth inhibition above about 70%; inactive means the rest.
Outcomes: active, inactive

>  <MOLECULE>
COc1ccc(C2C(=O)C(Cl)N2Nc2nc(C)cc(=O)[nH]2)cc1OC (stereo not drawn)

>  <CATEGORY_LABEL>
inactive

$$$$
>  <MOLECULE>
CCOC(=O)Nc1ccc(C2SCCN2C(=O)NC)cc1 (stereo not drawn)

>  <CATEGORY_LABEL>
inactive

$$$$
>  <MOLECULE>
CCCCCOC(=S)S

>  <CATEGORY_LABEL>
inactive

$$$$
>  <MOLECULE>
COc1ccc(C(Cl)=C(c2ccc(OCCN(C)C)cc2)c2ccc(OCCN(C)C)cc2)cc1

>  <CATEGORY_LABEL>
inactive

$$$$
>  <MOLECULE>
CC(=O)COc1cccc2ccccc12

>  <CATEGORY_LABEL>
inactive

$$$$
>  <MOLECULE>
Cn1c(=O)c2snnc2n(C)c1=O

>  <CATEGORY_LABEL>
inactive

$$$$
>  <MOLECULE>
COC(=O)c1cc(C(=O)OC)c(C(=O)OC)cc1C(=O)OC

>  <CATEGORY_LABEL>
inactive

$$$$
>  <MOLECULE>
CCOC(=O)CN(C)C#N

>  <CATEGORY_LABEL>
inactive

$$$$
>  <MOLECULE>
CN(C)CCNS(=O)(=O)N(C)C

>  <CATEGORY_LABEL>
inactive

$$$$
>  <MOLECULE>
CN(C)CCNc1cccc2oc3ccc(O)cc3c(=O)c12

>  <CATEGORY_LABEL>
inactive

$$$$
>  <MOLECULE>
CCN(CC)CCOc1cc(C(C)C)ccc1C

>  <CATEGORY_LABEL>
active

$$$$
>  <MOLECULE>
O=[N+]([O-])c1ccc(/C=N\N=C\c2ccco2)cc1

>  <CATEGORY_LABEL>
inactive

$$$$
>  <MOLECULE>
O=C(CN=C(CN(c1ccccc1)c1ccccc1)Oc1c(Cl)cc(Cl)cc1Cl)N1c2ccccc2Sc2ccccc21

>  <CATEGORY_LABEL>
inactive

$$$$
